target: recombinant human GALK1 (Homo sapiens, UniProt P51570); assay: hGALK1 biochemical activity assay (Kinase-Glo Plus, ATP depletion); settings: recombinant human GALK1, Kinase-Glo Plus ATP depletion; read-out: hGALK
Sequence (P51570 whole entry): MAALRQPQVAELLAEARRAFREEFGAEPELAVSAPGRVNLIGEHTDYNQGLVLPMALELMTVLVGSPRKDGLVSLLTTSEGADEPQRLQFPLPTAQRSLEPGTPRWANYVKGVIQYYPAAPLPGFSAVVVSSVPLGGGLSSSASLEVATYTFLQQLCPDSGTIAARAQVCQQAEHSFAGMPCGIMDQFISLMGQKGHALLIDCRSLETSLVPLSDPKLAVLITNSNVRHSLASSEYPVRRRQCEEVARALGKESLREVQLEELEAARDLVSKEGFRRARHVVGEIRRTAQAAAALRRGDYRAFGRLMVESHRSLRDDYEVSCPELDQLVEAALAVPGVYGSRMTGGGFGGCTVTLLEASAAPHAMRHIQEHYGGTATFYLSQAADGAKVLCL
pIC50 overview
Lab note — pIC50 values are minus log10 of concentrations in M.

## Task Would you mind telling me what pIC50 value was observed for CC1=C(C(=O)Nc2ccccc2CO)C(c2ccccc2Cl)N=C(Nc2nc3ccccc3o2)N1 (centres unmarked) ?
## Result 5.41

## Task Would you mind telling me what pIC50 value was observed for COc1ccc(C(=O)O)cc1NC(=O)C1=C(C)NC(Nc2nc3ccc(F)cc3o2)=NC1c1ccccc1Cl (centres unmarked) ?
## Result 5.66

## Task Would you mind telling me what pIC50 value was observed for CC1=C(C(=O)Nc2cc(C(=O)O)ccn2)C(c2ccc(-c3ccc(C)nc3)cc2Cl)N=C(Nc2nc3ccc(F)cc3o2)N1 (centres unmarked) ?
## Result 6.47

## Task Would you mind telling me what pIC50 value was observed for COC(=O)c1ccnc(NC(=O)C2=C(C)NC(Nc3nc4ccc(F)cc4o3)=N[C@@H]2c2ccccc2Cl)c1 ?
## Result 4.91

## Task Would you mind telling me what pIC50 value was observed for CC1=C(C(=O)Nc2ccc(CO)nc2)C(c2ccccc2Cl)N=C(Nc2nc3ccccc3o2)N1 (centres unmarked) ?
## Result 5.31

---
## Task Would you mind telling me what pIC50 value was observed for CC1=C(C(=O)Nc2cccc(CO)c2)C(c2ccccc2Cl)N=C(Nc2nc3ccccc3o2)N1 (centres unmarked) ?
## Result 5.41

## Task Would you mind telling me what pIC50 value was observed for CCn1cc(CNC(=O)C2=C(C)NC(Nc3nc4ccc(F)c(N)c4o3)=NC2c2ccc(Cl)cc2Cl)cn1 (centres unmarked) ?
## Result 6.57

## Task Would you mind telling me what pIC50 value was observed for CC1=C(S(C)(=O)=O)C(c2ccccc2Cl)N=C(Nc2nc3ccccc3o2)N1 (centres unmarked) ?
## Result 4.86

## Task Would you mind telling me what pIC50 value was observed for CC1=C(C(=O)Nc2cc(C(=O)O)ccn2)C(c2cccc([N+](=O)[O-])c2Cl)N=C(Nc2nc3ccc(F)cc3o2)N1 (centres unmarked) ?
## Result 4.71

## Task Would you mind telling me what pIC50 value was observed for CC1=C(C(=O)Nc2cc(C(=O)O)ccn2)C(c2ccccc2Cl)N=C(Nc2nc3cc(Cl)ccc3o2)N1 (centres unmarked) ?
## Result 5.61

## Task Would you mind telling me what pIC50 value was observed for CC1=C(C(=O)Nc2cc(CO)ccn2)C(c2ccccc2Cl)N=C(Nc2nc3ccccc3o2)N1 (centres unmarked) ?
## Result 5.51

## Task Would you mind telling me what pIC50 value was observed for CC1=C(C(=O)Nc2cc(C(=O)O)ccn2)C(c2ccccc2Cl)N=C(Nc2nc3c(C)cccc3o2)N1 (centres unmarked) ?
## Result 5.01

====

assay: PAMPA permeability
reported endpoint: Perm. (1 × 10^−6 cm/sec)

Record excerpt, results attached:
## Task Would you mind telling me what Perm. (1 × 10^−6 cm/sec) value was observed for CC1=C(C(=O)Nc2cc(C(=O)O)ccn2)C(c2ccc(-c3ccc(C(F)(F)F)cc3)cc2Cl)N=C(Nc2nc3ccc(F)cc3o2)N1 (stereo not shown) ?
## Result 6.6 1 × 10^−6 cm/sec

## Task Would you mind telling me what Perm. (1 × 10^−6 cm/sec) value was observed for CC1=C(C(=O)Nc2cc(C(=O)O)ccn2)C(c2ccccc2Cl)N=C(Nc2nc3cc(C)ccc3o2)N1 (stereo not shown) ?
## Result <1 1 × 10^−6 cm/sec

## Task Would you mind telling me what Perm. (1 × 10^−6 cm/sec) value was observed for CC1=C(C(=O)Nc2cc(C(=O)O)ccn2)C(c2cccc(C(N)=O)c2)N=C(Nc2nc3ccc(F)cc3o2)N1 (stereo not shown) ?
## Result <1 1 × 10^−6 cm/sec

## Task Would you mind telling me what Perm. (1 × 10^−6 cm/sec) value was observed for CC1=C(C(=O)Nc2cc(C(N)=O)ccn2)C(c2ccccc2Cl)N=C(Nc2nc3ccc(F)cc3o2)N1 (stereo not shown) ?
## Result 15.5 1 × 10^−6 cm/sec

## Task Would you mind telling me what Perm. (1 × 10^−6 cm/sec) value was observed for CC1=C(C(=O)Nc2cc(C(=O)O)ccn2)C(c2ccccc2Cl)N=C(Nc2nc3cccc([N+](=O)[O-])c3o2)N1 (stereo not shown) ?
## Result 31.0 1 × 10^−6 cm/sec

## Task Would you mind telling me what Perm. (1 × 10^−6 cm/sec) value was observed for CC1=C(C(=O)Nc2cc(C(=O)O)ccn2)C(c2ccc(C#N)cc2Cl)N=C(Nc2nc3ccc(F)cc3o2)N1 (stereo not shown) ?
## Result <1 1 × 10^−6 cm/sec

## Task Would you mind telling me what Perm. (1 × 10^−6 cm/sec) value was observed for CC1=C(C(=O)Nc2nnc(-c3cccnc3)s2)C(c2ccccc2Cl)N=C(Nc2nc3ccc(C)cc3o2)N1 (stereo not shown) ?
## Result <2.9 1 × 10^−6 cm/sec

## Task Would you mind telling me what Perm. (1 × 10^−6 cm/sec) value was observed for CC1=C(C(=O)Nc2cc(C(=O)O)ccn2)C(c2ccc(-c3cnc(C)nc3)cc2Cl)N=C(Nc2nc3ccc(F)cc3o2)N1 (stereo not shown) ?
## Result <1 1 × 10^−6 cm/sec

---
## Task Would you mind telling me what Perm. (1 × 10^−6 cm/sec) value was observed for CC1=C(C(=O)Nc2cc(C(=O)O)ccn2)C(c2ccc(Br)cc2Cl)N=C(Nc2nc3ccc(F)cc3o2)N1 (stereo not shown) ?
## Result <1.7 1 × 10^−6 cm/sec

## Task Would you mind telling me what Perm. (1 × 10^−6 cm/sec) value was observed for CC1=C(C(=O)Nc2ccc(C(=O)O)cn2)C(c2ccccc2Cl)N=C(Nc2nc3ccc(F)cc3o2)N1 (stereo not shown) ?
## Result <1 1 × 10^−6 cm/sec

## Task Would you mind telling me what Perm. (1 × 10^−6 cm/sec) value was observed for CC1=C(C(=O)Nc2cc(N(C)C)ccn2)C(c2ccc(C)cc2Cl)N=C(Nc2nc3ccc(F)cc3o2)N1 (stereo not shown) ?
## Result 264.3 1 × 10^−6 cm/sec

## Task Would you mind telling me what Perm. (1 × 10^−6 cm/sec) value was observed for COc1cccc2nc(NC3=NC(c4ccccc4Cl)C(C(=O)Nc4cc(C(=O)O)ccn4)=C(C)N3)oc12 (stereo not shown) ?
## Result <1 1 × 10^−6 cm/sec

## Task Would you mind telling me what Perm. (1 × 10^−6 cm/sec) value was observed for CC1=C(C(=O)Nc2cc(C(=O)O)ccn2)C(c2ccccc2Cl)N=C(Nc2nc3cccc(C(F)(F)F)c3o2)N1 (stereo not shown) ?
## Result <1 1 × 10^−6 cm/sec

## Task Would you mind telling me what Perm. (1 × 10^−6 cm/sec) value was observed for CCOc1ccc(C2N=C(Nc3nc4ccc(F)cc4o3)NC(C)=C2C(=O)Nc2cc(C(=O)O)ccn2)c(Cl)c1 (stereo not shown) ?
## Result <1 1 × 10^−6 cm/sec

## Task Would you mind telling me what Perm. (1 × 10^−6 cm/sec) value was observed for CC1=C(C(=O)NCc2cnn(C)c2)C(c2ccccc2Cl)N=C(Nc2nc3cccc(N)c3o2)N1 (stereo not shown) ?
## Result 101.9 1 × 10^−6 cm/sec

## Task Would you mind telling me what Perm. (1 × 10^−6 cm/sec) value was observed for CC1=C(C(=O)NCc2cnn(C)c2)[C@H](c2ccc(C)cc2Cl)N=C(Nc2nc3cccc(N)c3o2)N1 ?
## Result 416.8 1 × 10^−6 cm/sec

## Task Would you mind telling me what Perm. (1 × 10^−6 cm/sec) value was observed for CC1=C(C(=O)Nc2cc(C(=O)O)ccn2)C(c2ccc(N3CCOCC3)cc2Cl)N=C(Nc2nc3ccc(F)cc3o2)N1 (stereo not shown) ?
## Result 26.5 1 × 10^−6 cm/sec

## Task Would you mind telling me what Perm. (1 × 10^−6 cm/sec) value was observed for CC1=C(C(=O)NCc2cnn(C)c2)C(c2ccc(C)cc2Cl)N=C(Nc2nc3cccnc3o2)N1 (stereo not shown) ?
## Result 355.44 1 × 10^−6 cm/sec

## Task Would you mind telling me what Perm. (1 × 10^−6 cm/sec) value was observed for COC(=O)c1ccnc(NC(=O)C2=C(C)NC(Nc3nc4ccc(F)cc4o3)=N[C@@H]2c2ccccc2Cl)c1 ?
## Result <7.4 1 × 10^−6 cm/sec

## Task Would you mind telling me what Perm. (1 × 10^−6 cm/sec) value was observed for CC1=C(C(=O)Nc2cc(C(=O)O)ccn2)C(c2ccc(C)cc2Cl)N=C(Nc2nc3c(o2)CCCC3)N1 (stereo not shown) ?
## Result <1.8 1 × 10^−6 cm/sec

## Task Would you mind telling me what Perm. (1 × 10^−6 cm/sec) value was observed for CC1=C(C(=O)NCc2c(C)nn(C)c2C)C(c2ccc(C)cc2Cl)N=C(Nc2nc3cccc(N)c3o2)N1 (stereo not shown) ?
## Result 127.92 1 × 10^−6 cm/sec

## Task Would you mind telling me what Perm. (1 × 10^−6 cm/sec) value was observed for CC1=C(C(=O)Nc2cc(C(=O)O)ccn2)[C@H](c2ccc(C)cc2Cl)N=C(Nc2nc3ccc(F)cc3o2)N1 ?
## Result <1 1 × 10^−6 cm/sec

## Task Would you mind telling me what Perm. (1 × 10^−6 cm/sec) value was observed for CC1=C(C(=O)Nc2cc(C#N)ccn2)C(c2ccccc2Cl)N=C(Nc2nc3ccc(F)cc3o2)N1 (stereo not shown) ?
## Result <6.8 1 × 10^−6 cm/sec

## Task Would you mind telling me what Perm. (1 × 10^−6 cm/sec) value was observed for CC1=C(C(=O)Nc2cc(C(=O)O)ccn2)C(c2ccc(-c3ccccc3)cc2Cl)N=C(Nc2nc3ccc(F)cc3o2)N1 (stereo not shown) ?
## Result <4.9 1 × 10^−6 cm/sec
